- ASSAYED SYSTEM: Glycogen synthase kinase-3 beta (Homo sapiens, UniProt P49841)
- Sequence (P49841 whole entry): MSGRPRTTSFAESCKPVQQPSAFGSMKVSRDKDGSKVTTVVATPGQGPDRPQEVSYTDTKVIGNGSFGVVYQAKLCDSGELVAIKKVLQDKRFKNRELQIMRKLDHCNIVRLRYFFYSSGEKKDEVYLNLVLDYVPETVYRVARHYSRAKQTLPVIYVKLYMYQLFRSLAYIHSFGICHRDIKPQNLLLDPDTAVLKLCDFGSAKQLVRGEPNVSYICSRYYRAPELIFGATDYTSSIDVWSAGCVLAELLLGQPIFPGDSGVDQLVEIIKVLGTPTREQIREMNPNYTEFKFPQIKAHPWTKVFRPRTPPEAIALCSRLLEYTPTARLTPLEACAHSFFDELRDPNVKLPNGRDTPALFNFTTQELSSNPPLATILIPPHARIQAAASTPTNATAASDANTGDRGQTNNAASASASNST
- ASSAY METHOD TEXT: concentration-response blocking of human GSK3B – biochemical, luminescence, cell-free homogeneous, retest, dose response (AID 434954)
I'd be grateful if you could share measured EC50 for these entries.

Challenge: Supply EC50 measured with Glycogen synthase kinase-3 beta (Homo sapiens, UniProt P49841) for O=C(NCCCN1CCN(Cc2ccccc2)CC1)C1CCN(S(=O)(=O)N2CCCC2)CC1 .
Response given: > 300 µM

Challenge: Quote Glycogen synthase kinase-3 beta (Homo sapiens, UniProt P49841) EC50 for entry Cc1cccc(Nc2nc(N)c([N+](=O)[O-])c(N3CCOCC3)n2)c1 .
Response given: > 300 µM

Challenge: Name the value of EC50 reported for CCc1cccc(C)c1NC(=O)CSc1nnc(CCCOc2ccc(Cl)cc2Cl)n1C when tested on Glycogen synthase kinase-3 beta (Homo sapiens, UniProt P49841).
Response given: > 300 µM

Challenge: Please tell me the measured EC50 for COCCn1c(SCC(=O)NC(=O)NC(C)C)nc2ccccc21 ; system: Glycogen synthase kinase-3 beta (Homo sapiens, UniProt P49841).
Response given: > 300 µM

Challenge: Fetch value of EC50 on Glycogen synthase kinase-3 beta (Homo sapiens, UniProt P49841) for COc1ccc(OC)c(Nc2nc(N)c([N+](=O)[O-])c(NCc3ccccc3)n2)c1 .
Response given: > 300 µM

Challenge: Report the value of EC50 obtained on Glycogen synthase kinase-3 beta (Homo sapiens, UniProt P49841) for CC1CCN(C(=O)CSc2nc(N)c3c4c(sc3n2)CN(C)CC4)CC1 .
Response given: > 300 µM

Challenge: Please respond with reported EC50 (system Glycogen synthase kinase-3 beta (Homo sapiens, UniProt P49841)) for OC1(C#CCN2CCOCC2)CCCCC1 .
Response given: > 300 µM

Challenge: Retrieve EC50 on Glycogen synthase kinase-3 beta (Homo sapiens, UniProt P49841); query c1ccc(CSc2nnc(-c3cccnc3)o2)cc1
Response given: > 300 µM

Challenge: Write down the reported EC50 (system: Glycogen synthase kinase-3 beta (Homo sapiens, UniProt P49841)) of CC1CCc2c(sc(Nc3nc4c(F)cccc4s3)c2C(N)=O)C1 (configuration not stated)
Response given: > 300 µM

Challenge: Tell me EC50 of O=C(Nc1ccc(O)c2c(=O)cc(-c3ccccc3Cl)oc12)c1ccc(Cl)cc1Cl when tested on Glycogen synthase kinase-3 beta (Homo sapiens, UniProt P49841).
Response given: 9.16 µM

Challenge: Look up and report EC50, with Glycogen synthase kinase-3 beta (Homo sapiens, UniProt P49841) as system, for O=Cc1cn(CCC(=O)O)nc1-c1cccc(Br)c1
Response given: > 300 µM

Challenge: State recorded EC50 with Glycogen synthase kinase-3 beta (Homo sapiens, UniProt P49841), entry COc1cccc(C(=O)c2sc(NC(C)C)nc2N)c1 , no comment.
Response given: 0.33 µM

Challenge: Report measured EC50 on Glycogen synthase kinase-3 beta (Homo sapiens, UniProt P49841); entry: Nc1nonc1-n1nnc(C(=O)NN=Cc2ccc(OCc3ccccc3F)cc2)c1CN1CCCCC1
Response given: > 300 µM

Challenge: Give EC50 only, for COc1ccc2c(c1)-c1c(ssc1=S)C(C)(C)N2 , using Glycogen synthase kinase-3 beta (Homo sapiens, UniProt P49841) data.
Response given: 6.72 µM

Challenge: Give EC50; test system Glycogen synthase kinase-3 beta (Homo sapiens, UniProt P49841); compound O=C(Nc1ccccc1C(=O)N1CCOCC1)C1CCCO1 (configuration not stated)
Response given: > 300 µM

Challenge: # return EC50 for CC(Sc1ccc2nnc(-c3ccc(F)cc3)n2n1)C(=O)O (configuration not stated) , test system: Glycogen synthase kinase-3 beta (Homo sapiens, UniProt P49841)
Response given: 21.4 µM

Challenge: Jot down EC50 (Glycogen synthase kinase-3 beta (Homo sapiens, UniProt P49841)) of Cc1ccc(CNc2nc(N)c([N+](=O)[O-])c(Nc3cccc(F)c3)n2)cc1 .
Response given: > 300 µM

Challenge: Lab note: record EC50 of Cc1nc2sc(C(c3cccc(F)c3)N3CC(C)OC(C)C3)c(O)n2n1 (configuration not stated) tested on Glycogen synthase kinase-3 beta (Homo sapiens, UniProt P49841).
Response given: > 300 µM

Challenge: Give EC50 only, for CC1=C(C#N)C(=O)NC(=O)C1=CNc1ccc(S(=O)(=O)N(C)C)cc1 , using Glycogen synthase kinase-3 beta (Homo sapiens, UniProt P49841) data.
Response given: > 300 µM

Challenge: Using Glycogen synthase kinase-3 beta (Homo sapiens, UniProt P49841) as the test system, report measured EC50 of c1ccc(Nc2nc(-c3ccncc3)nc3ccccc23)cc1 .
Response given: 22 µM

Challenge: Report EC50 from Glycogen synthase kinase-3 beta (Homo sapiens, UniProt P49841) testing of O=C(Nc1ccccc1Cl)N1CCSc2ccccc21
Response given: > 300 µM

Challenge: Please tell me the measured EC50 for CSc1nc2c(c(=O)[nH]1)C(c1cccs1)C1C(=O)CCCC1=N2 (configuration not stated) ; system: Glycogen synthase kinase-3 beta (Homo sapiens, UniProt P49841).
Response given: > 300 µM
